System: RARb homodimer (NR concentration 270 nM)
Assay: PBM binding z-score (relative to random genomic background probes); higher = stronger binding; sequences stand for … in GC…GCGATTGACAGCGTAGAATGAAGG
readout label: PBM binding z-score

CAAACTAGGTCAAAGGTCAAACTCGAGCCAACCA: 5.32
ATCTCTAGGTAACAAGGTCAGTGAAAGAGAGGAC: 3.49

Please give PBM binding z-score for each item listed below.
1. CTATGTAGGTTAAGGGGGCCATTCAGTTTGAAAG
2. CTATGTAGGTAAAGGGGGTCATTCAGTTTGAAAG
3. CGAACTAGGTCACCAGGTCAGTGAAGAGGTTGGA

(A)
1.71
3.55
4.64

Please give PBM binding z-score for each item listed below.
1. CCGAGCAGGTTACGAGGGGGCATTCAGTGCGAAT
2. CCTTACGGGTCAAGGTTATCGCACGGGTGGTACG
3. AGTCAAAGTTCATCTAGGTATCGTAAGATATGCT
4. CGAACTAGGTCACAGGACAGTGAAAGGCGACGTA
5. GCTAGTAGGTCAGTAAAAGGTCACACACCGGTCG
6. ATATGTATGTTAGGGTCATTCAGAAAGTAGGGAA
7. TCGAGTAGGTTACGGGGGCATTCACGGATGAAGA
8. ATATGCAGGTTATCGGGTCATTCAGTTTGCGCAT

(A)
1: 2.17; 2: 3.58; 3: 3.84; 4: 3.12; 5: 6.06; 6: 3.03; 7: 2.05; 8: 2.95

Please give PBM binding z-score for each item listed below.
1. ATATGTAGGTTACGGTCATTCAGAAAGTAGGGAA
2. CCGAGTAGGTTACCAGGGGGCATTCAGTGCGAAT
3. CTATGTAGGTTAAGGGGGTCATTCTGTTTGAAAG
4. CCTTACGGGCCACGAGGTTATAGCACGACGAGCG
5. ACTCGGAGGACAAACGTCAGAGCTACGCCAGTGA
6. CGTCAAAGTTCAAGGTAATGTAACAGAAAGCAGC
7. CCGAGTAGGTTACGATGGGGCATTCAGTGCGAAT
8. CAAACTAGGTCACAGAGGGCAAAGTCCGTGCGTA

(A)
2.42
2.4
3.79
1.17
0.0238
4.04
0.657
4.14
